The reported numbers originate from patent US20230134571A1.

Quick reference: IC50 (µg/ml) with constrains of the listed items.
Molecular target: HIV Env of isolate CNE30 (clade BC) (HIV)
Test: cell-based or functional assay

Use these answered entries as a reference point.
[
  {
    "BINDER": "ePGDM5 (antibody, V domains shown) VH: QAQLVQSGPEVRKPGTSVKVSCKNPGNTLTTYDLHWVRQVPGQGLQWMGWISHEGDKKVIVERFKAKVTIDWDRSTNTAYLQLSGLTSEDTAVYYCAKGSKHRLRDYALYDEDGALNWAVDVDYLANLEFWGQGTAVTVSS VL: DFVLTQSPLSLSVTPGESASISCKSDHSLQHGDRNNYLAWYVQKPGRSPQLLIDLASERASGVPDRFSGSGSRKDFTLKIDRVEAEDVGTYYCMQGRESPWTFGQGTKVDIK",
    "QUANTITY KIND": "IC50 (µg/ml) with constrains",
    "RESULT": "> 100 µg/mL"
  },
  {
    "BINDER": "ePGDM13 (antibody, V domains shown) VH: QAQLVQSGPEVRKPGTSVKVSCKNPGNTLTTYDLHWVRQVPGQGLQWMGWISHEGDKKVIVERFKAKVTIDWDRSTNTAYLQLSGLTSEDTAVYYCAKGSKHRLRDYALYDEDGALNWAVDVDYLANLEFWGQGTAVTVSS VL: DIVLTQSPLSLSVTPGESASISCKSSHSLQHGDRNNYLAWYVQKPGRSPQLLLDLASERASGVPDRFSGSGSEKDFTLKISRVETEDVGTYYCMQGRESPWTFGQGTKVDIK",
    "QUANTITY KIND": "IC50 (µg/ml) with constrains",
    "RESULT": "> 100 µg/mL"
  },
  {
    "BINDER": "ePGDM9 (antibody, V domains shown) VH: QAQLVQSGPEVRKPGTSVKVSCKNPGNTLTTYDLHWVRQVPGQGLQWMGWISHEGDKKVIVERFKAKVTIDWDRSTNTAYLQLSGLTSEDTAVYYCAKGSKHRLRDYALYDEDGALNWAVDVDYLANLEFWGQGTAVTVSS VL: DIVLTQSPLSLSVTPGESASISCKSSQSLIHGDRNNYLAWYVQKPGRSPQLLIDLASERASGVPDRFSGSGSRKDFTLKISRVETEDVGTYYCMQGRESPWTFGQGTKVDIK",
    "QUANTITY KIND": "IC50 (µg/ml) with constrains",
    "RESULT": "> 100 µg/mL"
  }
]

Next item in the queue.
Using the record for PGDM1400 (antibody, V domains shown) VH: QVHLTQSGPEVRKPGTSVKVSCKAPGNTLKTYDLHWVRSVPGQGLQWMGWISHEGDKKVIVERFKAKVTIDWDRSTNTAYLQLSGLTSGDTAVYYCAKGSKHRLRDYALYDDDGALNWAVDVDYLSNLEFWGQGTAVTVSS VL: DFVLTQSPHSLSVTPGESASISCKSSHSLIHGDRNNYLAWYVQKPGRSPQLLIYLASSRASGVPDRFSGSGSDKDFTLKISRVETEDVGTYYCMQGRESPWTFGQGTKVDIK , report its IC50 (µg/ml) with constrains.
> 100 µg/mL
